- Tested on: soybean cotyledons (cultivar Williams)
- experimental-protocol: Soybean cut cotyledon assay: loading of daidzein conjugate / isoflavone pools
- Format: in vivo
- settings: 33 uM; cut cotyledon assay; average of two experiments
- Excerpt: The cut cotyledon assay is used to investigate both the ability of the nuclear receptor ligand to activate basal elicitation competency in plants, and to evaluate the ability of a second compound such as the glucan defense elicitor from the fungal pathogen Phytophthora sojae to enhance glyceollin elicitation competency in plants in which the isoflavone pools were “loaded” by the action of the ligand. […]
Doc: threshold 50% (exclusive). Items with Percent increase in total daidzein conjugate pools compared to a water control (Table 2) beneath it return satisfied; others return not satisfied.

I wonder whether `C[C@]12CC[C@@H]3c4ccc(O)cc4CC[C@H]3[C@@H]1C[C@@H](O)[C@@H]2O` has Percent increase in total daidzein conjugate pools compared to a water control (Table 2) below 50%. Can you tell?
satisfied

Field entry: CC(C)(Oc1ccc(C2CC2(Cl)Cl)cc1)C(=O)O (centres unmarked) [Ciprofibrate, ciprofibrate]
not satisfied

Now the same for `CC/C(=C(/CC)c1ccc(O)cc1)c1ccc(O)cc1`
satisfied

Let us now turn to `C[C@]12CC[C@@H]3c4ccc(O)cc4CC[C@H]3[C@@H]1CC[C@@H]2O`
not satisfied

Also need `CC(C)[C@@H](C)/C=C/[C@@H](C)[C@H]1CC[C@H]2C3=CC=C4C[C@@H](O)CC[C@]4(C)[C@H]3CC[C@]12C` , thanks.
not satisfied

Likewise for `O=c1oc2cc(O)ccc2c2oc3cc(O)ccc3c12` ?
not satisfied

What about this molecule? `C/C=C(/C(=C/C)c1ccc(O)cc1)c1ccc(O)cc1`
satisfied

And then `C[C@H]1CCCC(=O)CCC/C=C/c2cc(O)cc(O)c2C(=O)O1` , what is it?
not satisfied
